Test: Pharmacokinetic experiments in Beagles
Assay type: in vivo
Settings: both sexes, beagle, dog, plasma, intravenous injection, 5 mg/kg, single administration
Experimental: Experimental animals: Beagles, male and female; body weight: 7-9 kg; Preparation of test samples: the compound (Ia) of the present invention was formulated into 2.5 mg/mL (for intravenous administration) and 2.0 mg/mL (for oral administration) for use. Routes of administration: oral/intravenous injection. Dosing capacity and frequency: 2 mL/kg (intravenous injection) or 5 mL/kg (oral), single administration. […]
measurement.kind: clearance (mL/min/kg)
Give the value, in units of mL/min/kg, as a plain number.

Give the value of clearance reported for the following: CCS(=O)(=O)N1CCC(CC#N)(n2cc(-c3ncnc4[nH]ccc34)cn2)CC1 7.5
